This section presents compounds with their documented melting point values.

Below, each entry is followed by its recorded melting point result.
[
  {
    "smiles-text": "O=C(O)c1cc(/C=C/c2cccc(C(F)(F)F)c2)nc2ccc(Br)cc12",
    "reported-endpoint": "melting point",
    "result": "310 to 312 °C"
  },
  {
    "smiles-text": "CC(C)(C)CC(=O)NN",
    "reported-endpoint": "melting point",
    "result": "51 to 53 °C"
  },
  {
    "smiles-text": "Nc1nc2c(F)c(Cl)ccc2s1",
    "reported-endpoint": "melting point",
    "result": "80 to 82 °C"
  },
  {
    "smiles-text": "NC(=S)c1cccc(S(=O)(=O)NC2CCCCCCC2)c1",
    "reported-endpoint": "melting point",
    "result": "124 to 126 °C"
  },
  {
    "smiles-text": "N#Cc1cc(-c2ccccc2)c(-c2ccccc2)nc1Cl",
    "reported-endpoint": "melting point",
    "result": "129 to 131 °C"
  }
]

Asked: Name the recorded melting point of the item O=Cc1cc(Br)c2c(c1)OCCCO2 in your answer.
Given back: 73 to 75 °C
